biological target: Acetylcholine receptor (Torpedo californica) (UniProt P02710+P02712+P02718+P02714); details: Tetronarce californica; Electric organ
Description: Affinity for Torpedo Californica electric organ nAChR.
Measurement Label: pKapp
I'd appreciate a reply containing only the number, no unit.

stdin: Record lookup: for Acetylcholine receptor (Torpedo californica) (UniProt P02710+P02712+P02718+P02714), what pKapp belongs to "COc1ccccc1CNCCCNCCCCCCNCCCCCCNCCCCCCNCCCNCc1ccccc1OC" ?
stdout: 6.4

stdin: For the record "CCCC(=O)N[C@H](Cc1ccc(O)cc1)C(=O)NCCCNCCCCCCNCCCCCCCCCCCCNCCCCCCN" , what value of pKapp is listed for Acetylcholine receptor (Torpedo californica) (UniProt P02710+P02712+P02718+P02714)?
stdout: 5.28

stdin: Notebook: pull reported pKapp for Acetylcholine receptor (Torpedo californica) (UniProt P02710+P02712+P02718+P02714), entry "[N-]=[N+]=Nc1ccc(C(=O)NCCCNCCCCCCNCCCCCCCCNCCCCCCN)c(O)c1"
stdout: 5.46

stdin: Under Acetylcholine receptor (Torpedo californica) (UniProt P02710+P02712+P02718+P02714): pKapp value of "COc1ccc2cc(C(=O)NCCCNCCCCCCNCCCCCCCCNCCCCCCNCc3cc(I)ccc3OC)c(=O)oc2c1" ?
stdout: 6.8

stdin: Item: "[N-]=[N+]=Nc1ccc(C(=O)NCCCNCCCCCCNCCCCCCCCCCCCNCCCCCCNCCCNC(=O)c2ccc(N=[N+]=[N-])cc2O)c(O)c1" Test system: Acetylcholine receptor (Torpedo californica) (UniProt P02710+P02712+P02718+P02714) Read-out: pKapp Value: ?
stdout: 5.72

stdin: Please state recorded pKapp (tested on Acetylcholine receptor (Torpedo californica) (UniProt P02710+P02712+P02718+P02714)) of "COc1ccccc1CNCCCNCCCCCCNCCCCCCCCNCCCCCCNCCCNCc1ccccc1OC"
stdout: 6.66

stdin: For the record "COc1ccc2cc(C(=O)NCCCNCCCCCCNCCCCCCCCNCCCCCCNCc3ccccc3OC)c(=O)oc2c1" , what value of pKapp is listed for Acetylcholine receptor (Torpedo californica) (UniProt P02710+P02712+P02718+P02714)?
stdout: 6.41

stdin: Reported pKapp for Acetylcholine receptor (Torpedo californica) (UniProt P02710+P02712+P02718+P02714), given CCCC(=O)NC(Cc1ccc(O)cc1)C(=O)NCCCNCCCCNCCCN (centres undefined) ?
stdout: 3.94

stdin: Identify the measured pKapp of "CCCC(=O)N[C@H](Cc1ccc(O)cc1)C(=O)NCCCNCCCCCCNCCCCCCCCCCCCNCCCCCCNCc1ccccc1OC" for Acetylcholine receptor (Torpedo californica) (UniProt P02710+P02712+P02718+P02714).
stdout: 5.89
